B1: glmS ribozyme (parent)
chain: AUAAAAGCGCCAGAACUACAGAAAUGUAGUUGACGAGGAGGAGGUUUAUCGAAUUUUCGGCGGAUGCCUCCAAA

Variants of: B1
Assay: self-cleavage kobs at 2500 uM GlcN6P; higher = faster cleavage; RNA array
Settings: with glucosamine-6-phosphate
Fewer inactive variants are shown than the library holds.
A collection of variants and their measured self-cleavage kobs at 2500 uM GlcN6P
Numeric only. Scale: s⁻¹

1) G37A G41C :: 3.87e-05
2) U54G C71G :: 0.000909
3) G32A U54C :: 0.00147
4) A72C :: 0.00362

Kindly review the next variant as well.
Record request: self-cleavage kobs at 2500 uM GlcN6P value, item A15C U56G 0.0011
